target: T1, alpha4beta7 on 38C13 alpha4+ murine lymphoma cells transfected with integrin beta7 (38C13beta7 cells) (murine, UniProt Q00651 41-1039; P26011 20-806); test: cell adhesion inhibition, 38C13beta7 cells on coated muVCAM-1-Ig, experiment 2 of 2
T1 construct: whole, on cells; also called 38C13-beta7 expressing cells; murine beta7-containing receptor
T1 sequence (Q00651 41-1039, chain 1 of 2): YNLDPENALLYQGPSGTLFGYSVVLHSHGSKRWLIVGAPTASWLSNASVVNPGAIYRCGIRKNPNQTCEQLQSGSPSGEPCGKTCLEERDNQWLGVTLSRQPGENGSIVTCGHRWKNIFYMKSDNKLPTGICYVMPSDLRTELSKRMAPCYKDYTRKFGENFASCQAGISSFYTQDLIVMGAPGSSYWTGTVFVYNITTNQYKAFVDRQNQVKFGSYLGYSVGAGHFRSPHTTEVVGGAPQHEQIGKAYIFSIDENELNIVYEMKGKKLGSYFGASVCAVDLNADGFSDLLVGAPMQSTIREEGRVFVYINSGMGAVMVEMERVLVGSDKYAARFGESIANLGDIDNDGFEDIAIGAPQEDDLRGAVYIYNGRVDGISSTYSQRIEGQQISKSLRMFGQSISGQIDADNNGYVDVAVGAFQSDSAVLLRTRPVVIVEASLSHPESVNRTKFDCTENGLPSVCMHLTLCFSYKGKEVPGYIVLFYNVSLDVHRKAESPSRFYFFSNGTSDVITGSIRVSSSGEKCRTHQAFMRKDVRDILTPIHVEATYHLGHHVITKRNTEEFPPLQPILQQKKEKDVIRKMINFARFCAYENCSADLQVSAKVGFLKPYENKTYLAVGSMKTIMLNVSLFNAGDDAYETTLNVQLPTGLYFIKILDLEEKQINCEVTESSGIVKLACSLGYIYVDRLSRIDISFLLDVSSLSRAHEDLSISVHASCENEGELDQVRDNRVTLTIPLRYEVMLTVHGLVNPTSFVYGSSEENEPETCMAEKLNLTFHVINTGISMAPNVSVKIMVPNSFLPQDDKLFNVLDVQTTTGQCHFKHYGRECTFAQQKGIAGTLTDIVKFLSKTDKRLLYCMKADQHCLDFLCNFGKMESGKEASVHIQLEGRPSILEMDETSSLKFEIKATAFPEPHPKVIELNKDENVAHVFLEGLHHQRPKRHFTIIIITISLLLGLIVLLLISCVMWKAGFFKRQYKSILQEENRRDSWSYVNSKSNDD
T1 sequence (P26011 20-806, chain 2 of 2): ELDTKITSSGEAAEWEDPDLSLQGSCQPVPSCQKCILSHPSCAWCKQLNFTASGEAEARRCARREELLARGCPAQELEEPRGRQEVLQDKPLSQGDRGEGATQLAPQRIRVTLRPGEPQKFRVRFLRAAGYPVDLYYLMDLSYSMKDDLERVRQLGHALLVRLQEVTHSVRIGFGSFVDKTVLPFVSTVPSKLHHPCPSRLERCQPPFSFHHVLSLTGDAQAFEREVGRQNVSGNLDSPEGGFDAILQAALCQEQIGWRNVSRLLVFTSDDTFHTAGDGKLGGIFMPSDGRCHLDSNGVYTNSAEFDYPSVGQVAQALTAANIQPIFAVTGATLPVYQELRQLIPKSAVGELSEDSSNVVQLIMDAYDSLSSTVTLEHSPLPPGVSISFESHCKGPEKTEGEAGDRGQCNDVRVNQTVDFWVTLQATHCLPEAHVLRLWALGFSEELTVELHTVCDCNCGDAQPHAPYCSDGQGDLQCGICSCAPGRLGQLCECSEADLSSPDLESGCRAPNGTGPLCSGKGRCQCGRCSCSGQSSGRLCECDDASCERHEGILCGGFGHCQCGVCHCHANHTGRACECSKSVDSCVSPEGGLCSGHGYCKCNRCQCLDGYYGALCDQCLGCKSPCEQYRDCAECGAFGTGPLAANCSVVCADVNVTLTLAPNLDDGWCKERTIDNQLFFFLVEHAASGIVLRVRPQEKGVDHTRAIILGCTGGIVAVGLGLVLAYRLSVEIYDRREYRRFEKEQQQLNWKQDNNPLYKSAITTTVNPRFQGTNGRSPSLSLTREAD
PARAMETER MEASURED: pIC50
Units for pIC50: none; it is -log10 of a concentration expressed in mol/L.

(Q) Which pIC50 value is on record for Rat Fib504 (antibody FIB504.64 produced by hybridoma ATCC HB-293) (antibody, V domains shown, Whole rat antibody in the cell adhesion assays; also called rat anti-mouse beta7 antibody) VH: EVQLQESGPGLVKPSQSLSLTCSVTGFFITNNYWGWIRKFPGNKMEWMGYISYSGSTSYNPSLKSRISITRDTSKNQFFLQLNSVTTEDTATYYCAMTGSSGYFDFWGPGTMVTVSS VL: DVVMTQSPATLSVTPGERISLSCRASESVDTYLHWYQQKPNESPRLLIKYASQSISGIPSRFSGSGSGTDFTLSINGVELEDLSIYYCQQGNSLPNTFGAGTKLELKR ?
(A) 9.35

(Q) # lookup: pIC50 of Variant hu504.32, IgG (antibody, V domains shown, methionine at heavy chain position 94; also called hu504.32M; 504.32M) VH: EVQLVESGGGLVQPGGSLRLSCAASGFFITNNYWGWVRQAPGKGLEWVGYISYSGSTSYNPSLKSRFTISRDTSKNTFYLQMNSLRAEDTAVYYCAMTGSSGYFDFWGQGTLVTVSS VL: DIQMTQSPSSLSASVGDRVTITCRASESVDDLLHWYQQKPGKAPKLLIKYASQSISGVPSRFSGSGSGTDFTLTISSLQPEDFATYYCQQGNSLPNTFGQGTKVEIKR
(A) 9.48

(Q) For the binder Variant hu504.5, IgG (antibody, name in Kabat numbering, V domains shown) VH: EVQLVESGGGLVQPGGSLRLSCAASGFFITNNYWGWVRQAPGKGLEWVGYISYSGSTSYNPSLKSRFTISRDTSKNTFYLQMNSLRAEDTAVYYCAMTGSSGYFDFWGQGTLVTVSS VL: DIQMTQSPSSLSASVGDRVTITCRASESVDSLLHWYQQKPGKAPKLLIKYASQSISGVPSRFSGSGSGTDFTLTISSLQPEDFATYYCQQGNSLPNTFGQGTKVEIKR , what pIC50 is on record?
(A) 9.39

(Q) Can you look up the measured pIC50 of Variant hu504.16, IgG (antibody, name in Kabat numbering, V domains shown) VH: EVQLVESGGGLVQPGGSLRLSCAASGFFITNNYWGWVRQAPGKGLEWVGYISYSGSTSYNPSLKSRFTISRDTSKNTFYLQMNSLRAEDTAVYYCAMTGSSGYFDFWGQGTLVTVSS VL: DIQMTQSPSSLSASVGDRVTITCRASESVDTLLHWYQQKPGKAPKLLIKYASQSISGVPSRFSGSGSGTDFTLTISSLQPEDFATYYCQQGNSLPNTFGQGTKVEIKR for me?
(A) 9.23
